target: purified human Factor XIa (Homo sapiens, UniProt P03951)
Sequence (P03951 388-625 limits assumed): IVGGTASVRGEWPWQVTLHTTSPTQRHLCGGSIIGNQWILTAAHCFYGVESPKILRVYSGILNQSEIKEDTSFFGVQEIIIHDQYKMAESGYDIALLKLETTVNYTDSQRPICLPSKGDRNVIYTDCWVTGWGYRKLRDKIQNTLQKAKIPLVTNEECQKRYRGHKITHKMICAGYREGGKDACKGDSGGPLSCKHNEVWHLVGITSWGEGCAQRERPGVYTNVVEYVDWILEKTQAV
Sequence (P03951 19-387 partner limits assumed): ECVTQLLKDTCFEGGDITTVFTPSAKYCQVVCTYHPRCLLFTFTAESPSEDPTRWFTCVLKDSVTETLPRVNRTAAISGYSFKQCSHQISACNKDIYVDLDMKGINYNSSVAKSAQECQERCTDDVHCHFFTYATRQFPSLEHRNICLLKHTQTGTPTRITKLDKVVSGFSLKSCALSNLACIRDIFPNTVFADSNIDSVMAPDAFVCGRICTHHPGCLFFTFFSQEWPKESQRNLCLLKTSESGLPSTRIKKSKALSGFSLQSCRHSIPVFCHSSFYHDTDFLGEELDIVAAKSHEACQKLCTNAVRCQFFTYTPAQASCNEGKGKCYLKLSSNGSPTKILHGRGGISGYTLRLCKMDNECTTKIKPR
pKi: −log10 of the molar value.
Label rule, in plain words: pKi of 7 and up is TRUE, under 7 is FALSE.

Example results:
O=C(NCCc1cnccn1)[C@H](Cc1ccccc1)n1cnc(-c2cc(Cl)ccc2-n2cc(Cl)nn2)cc1=O FALSE
O=C1OCC[C@@H]1NC(=O)[C@H](Cc1ccccc1)n1cnc(-c2cc(Cl)ccc2-n2cc(Cl)nn2)cc1=O FALSE

// inclusive: pKi at least 7? input: NC(=O)c1cccc(C[C@@H](C(=O)Nc2ccc(C(=O)O)cc2)N2CCC(c3cc(Cl)ccc3-n3ccnn3)=CC2=O)c1 TRUE

// inclusive: pKi at least 7? input: CC(C)CCNC(=O)[C@H](Cc1ccccc1)n1cnc(-c2cc(Cl)ccc2-n2cc(Cl)nn2)cc1=O FALSE

----------
biological target: purified human Factor XIa (Homo sapiens, UniProt P03951)
I'd be grateful if you could share measured pKi for these entries.
Numbers only, as −log10 of the molar value.

Worked cases, pKi given:
compound	pKi
CCOC(=O)Cc1ccc(NC(=O)[C@H](Cc2ccccc2)n2cnc(-c3cc(Cl)ccc3-n3cc(Cl)nn3)cc2=O)cc1	6.89
O=C(Nc1noc2ccccc12)[C@H](Cc1ccccc1)n1cnc(-c2cc(Cl)ccc2-n2cc(Cl)nn2)cc1=O	6.80
O=C(NC1CCC(O)CC1)[C@H](Cc1ccccc1)n1cnc(-c2cc(Cl)ccc2-n2cc(Cl)nn2)cc1=O (stereo partly shown)	6.90

Tell us which pKi value is on record for O=C(Nc1cccc2ncccc12)[C@H](Cc1ccccc1)n1cnc(-c2cc(Cl)ccc2-n2cc(Cl)nn2)cc1=O 6.79

----------
In what follows, each item is paired with its Ki for purified human Factor XIa (Homo sapiens).
Numbers only, in µM.

Worked cases, Ki given:
CCOC(=O)c1cn2c(n1)CN(C(=O)[C@H](Cc1ccccc1)n1cnc(-c3cc(Cl)ccc3-n3cc(Cl)nn3)cc1=O)CC2 4.94
O=C1CCN(C(=O)[C@H](Cc2ccccc2)n2cnc(-c3cc(Cl)ccc3-n3cc(Cl)nn3)cc2=O)CCN1 4.94

Tell us which Ki value is on record for O=C([C@H](Cc1ccccc1)n1cnc(-c2cc(Cl)ccc2-n2cc(Cl)nn2)cc1=O)N1CCN(c2ccncc2)CC1 4.89

----------
In what follows, each item is paired with its pKi for UniProtKB P03951.
Numbers only, as −log10 of the molar value.

Worked cases, pKi given:
molecule	measured-target	pKi
N#Cc1ccc(NC(=O)[C@H](Cc2ccccc2)n2cnc(-c3cc(Cl)ccc3-n3cc(Cl)nn3)cc2=O)cc1F [Example 92]	UniProtKB P03951	6.90
O=C(Nc1ccc(OC2CCOCC2)cc1)[C@H](Cc1ccccc1)n1cnc(-c2cc(Cl)ccc2-n2cc(Cl)nn2)cc1=O [Example 41]	UniProtKB P03951	6.93

Kindly review the next molecule as well.
Tell us which pKi value is on record for COC(=O)c1ccc(NC(=O)[C@H](Cc2ccccc2)n2cnc(-c3cc(Cl)ccc3-n3cc(Cl)nn3)cc2=O)cc1 [Example 22] 7.08
